Measured pIC50 of individual entries
Molecular target: Histone deacetylase 1 (Homo sapiens)
Sequence (Q13547 whole entry): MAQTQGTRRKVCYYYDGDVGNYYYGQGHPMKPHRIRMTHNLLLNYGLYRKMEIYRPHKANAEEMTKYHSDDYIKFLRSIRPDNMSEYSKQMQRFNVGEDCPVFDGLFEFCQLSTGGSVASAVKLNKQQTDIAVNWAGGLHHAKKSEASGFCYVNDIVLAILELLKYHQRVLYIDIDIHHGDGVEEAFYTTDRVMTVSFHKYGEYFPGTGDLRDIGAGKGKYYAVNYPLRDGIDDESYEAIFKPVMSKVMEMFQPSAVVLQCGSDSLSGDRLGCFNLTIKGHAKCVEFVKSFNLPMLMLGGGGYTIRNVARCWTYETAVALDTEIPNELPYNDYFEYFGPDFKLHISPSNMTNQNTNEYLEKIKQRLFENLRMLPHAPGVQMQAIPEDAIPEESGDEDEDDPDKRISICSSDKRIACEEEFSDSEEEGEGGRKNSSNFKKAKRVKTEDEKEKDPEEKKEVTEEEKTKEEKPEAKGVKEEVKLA
Test: Inhibition of HDAC1 (unknown origin) using compound purified by traditional preparative HPLC work-flow
pIC50: −log10 of the molar value.
Attribute Measured: pIC50

Molecule | Attribute Measured | Assay Value
CCC(=O)CCCCC[C@H](NC(=O)[C@H]1CC12CCN(C)CC2)c1ncc(-c2ccc(C)nc2OC)[nH]1 | pIC50 | 8.43
CCC(=O)CCCCC[C@H](NC(=O)[C@H]1CC12CCN(C)CC2)c1ncc(-c2ccc(-c3cccnc3)nc2)[nH]1 | pIC50 | 8.19
CCC(=O)CCCCC[C@H](NC(=O)[C@H]1CC12CCN(C)CC2)c1ncc(-c2ccc(-n3nc(C)cc3C)cc2)[nH]1 | pIC50 | 7.85
CCOc1ncc(-c2cnc([C@H](CCCCCC(=O)CC)NC(=O)[C@H]3CC34CCN(C)CC4)[nH]2)cn1 | pIC50 | 6.84
CCC(=O)CCCCC[C@H](NC(=O)[C@H]1CC12CCN(C)CC2)c1ncc(-c2ccc(C(=O)NC3CCOC3)cc2)[nH]1 (stereo partly specified) | pIC50 | 8.04
CCC(=O)CCCCC[C@H](NC(=O)[C@H]1CC12CCN(C)CC2)c1ncc(-c2cnc3cccnc3c2)[nH]1 | pIC50 | 7.55
